// provenance: patent US11919883B2

Measured pIC50 accompanies every entry in the list below.
target: recombinant human CYP11B2 (Homo sapiens, UniProt P19099); construct: made in house; host or cells: V79-4 cells (enzyme enriched microsomal fraction of cell lysates); assay: CYP11B2 enzyme assay, enzyme enriched microsomes from V79-4 cells, aldosterone by LC-MS; format: biochemical; conditions: IC50 ranges; run at Km of 11-deoxycorticosterone; read-out: hCYP11B2 IC50
Sequence (P19099 25-503): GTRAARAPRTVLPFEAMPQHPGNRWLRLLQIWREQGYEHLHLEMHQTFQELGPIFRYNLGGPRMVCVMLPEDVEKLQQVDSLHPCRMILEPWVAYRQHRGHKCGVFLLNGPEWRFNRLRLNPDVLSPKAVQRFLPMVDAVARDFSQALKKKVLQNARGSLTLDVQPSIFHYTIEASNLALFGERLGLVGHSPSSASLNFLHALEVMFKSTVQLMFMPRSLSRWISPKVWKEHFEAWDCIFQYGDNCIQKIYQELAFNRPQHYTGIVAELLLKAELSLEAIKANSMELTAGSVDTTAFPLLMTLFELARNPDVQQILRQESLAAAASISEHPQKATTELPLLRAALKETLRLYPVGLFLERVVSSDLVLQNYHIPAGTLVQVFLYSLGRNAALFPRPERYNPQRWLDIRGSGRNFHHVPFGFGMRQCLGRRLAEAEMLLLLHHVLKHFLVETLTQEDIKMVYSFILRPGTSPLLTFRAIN
pIC50: −log10 of the molar value.

// solved cases for pIC50 follow
- CCn1c(-c2cncnc2)cc2ccc(Cl)cc21: 7.00 to 9.00
- Cc1ncncc1-c1nc2ccc(Cl)nc2n1C1CC1: 7.00 to 9.00
- N#Cc1ccc2nc(-c3cncnc3C(F)(F)F)n(C3CC3)c2c1: 7.00 to 9.00

Sample COc1ccc2nc(-c3cncnc3)n(C3CC3)c2c1 ; pIC50 observed: 6.00 to 7.00

Sample Fc1ccc2nc(-c3cncnc3Cl)n(C3CC3)c2c1 ; pIC50 observed: 7.00 to 9.00

----------
target: recombinant human CYP11B1 (Homo sapiens, UniProt P15538); construct: made in house; host or cells: V79-4 cells (enzyme enriched microsomal fraction of cell lysates); test: CYP11B1 enzyme assay, enzyme enriched microsomes from V79-4 cells, cortisol by LC-MS; format: biochemical; conditions: IC50 ranges; run at Km of 11-deoxycortisol; read-out: hCYP11B1 IC50
Sequence (P15538 25-503): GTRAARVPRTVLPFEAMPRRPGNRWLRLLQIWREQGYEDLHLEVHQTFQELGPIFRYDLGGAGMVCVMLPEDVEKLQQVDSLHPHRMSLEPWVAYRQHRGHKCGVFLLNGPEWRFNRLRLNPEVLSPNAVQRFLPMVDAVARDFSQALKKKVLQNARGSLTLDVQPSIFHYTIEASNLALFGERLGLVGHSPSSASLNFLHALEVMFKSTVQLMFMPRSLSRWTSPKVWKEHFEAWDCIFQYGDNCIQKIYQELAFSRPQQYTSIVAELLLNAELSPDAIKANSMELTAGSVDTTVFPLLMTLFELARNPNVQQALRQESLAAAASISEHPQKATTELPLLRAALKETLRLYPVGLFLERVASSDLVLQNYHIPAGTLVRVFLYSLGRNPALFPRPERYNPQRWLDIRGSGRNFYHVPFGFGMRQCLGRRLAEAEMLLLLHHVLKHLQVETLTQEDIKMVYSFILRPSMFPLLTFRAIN
reported-endpoint: IC50

// solved cases for IC50 follow
• CCc1ncncc1-c1nc2ccc(F)c(F)c2n1C1CC1 = 1 to 10 µM
• CC(C)c1ncncc1-c1nc2cc(F)c(F)cc2n1C1CC1 = 0.1 to 1 µM
• COc1ncncc1-c1nc2ccc(F)cc2n1C1CC1 = > 10 µM
• CC(C)c1ncncc1-c1nc2ccc(C#N)cc2n1C1CC1 = 1 to 10 µM

Sample CC(C)(C)Nc1ncncc1-c1nc2cc(F)c(F)cc2n1C1CC1 ; IC50 observed: 0.1 to 1 µM

Sample CCCc1ncncc1-c1nc2ccc(F)cc2n1C1CC1 ; IC50 observed: 1 to 10 µM

Sample Fc1ccc2nc(-c3cncnc3C(F)F)n(C3CC3)c2c1 ; IC50 observed: 1 to 10 µM

Sample Fc1cc2nc(-c3cncnc3NCC(F)(F)F)n(C3CC3)c2cc1F ; IC50 observed: 0.1 to 1 µM

Sample Cc1ncncc1-c1nc2cnc(C#N)cc2n1C1CC1 ; IC50 observed: > 10 µM

Sample CCc1ncncc1-c1nc2ccc(Cl)cc2n1C1CC1 ; IC50 observed: 1 to 10 µM

----------
Measured IC50 accompanies every entry in the list below.
biological target: recombinant human CYP11B2 (Homo sapiens); construct: made in house; host or cells: V79-4 cells (enzyme enriched microsomal fraction of cell lysates); experiment: CYP11B2 enzyme assay, enzyme enriched microsomes from V79-4 cells, aldosterone by LC-MS; format: biochemical; details: IC50 ranges; run at Km of 11-deoxycorticosterone; read-out: hCYP11B2 IC50

// solved cases for IC50 follow
- CC(C)c1ncncc1-c1nc2ccc(Cl)cc2n1C1CC1 [Example 24]: 1 to 100 nM
- N#Cc1ncncc1-c1nc2cc(F)c(F)cc2n1C1CC1 [Example 46]: 1 to 100 nM
- CCc1ncncc1-c1nc2ccc(Cl)cc2n1C1CC1 [Example 11]: 1 to 100 nM

// compound Fc1cc2nc(-c3cncnc3C3CC3)n(C3CC3)c2cc1F [Example 72] , assay recombinant human CYP11B2 (Homo sapiens), IC50 value: 100 to 1000 nM

// compound CN(C)c1ncncc1-c1nc2cc(F)c(F)cc2n1C1CC1 [Example 32] , assay recombinant human CYP11B2 (Homo sapiens), IC50 value: 1 to 100 nM
